Values from patent US20050197371A1

Target: PDGFRB(DKIN) (PDGFR-β) (Homo sapiens)
Construct: PDGFRB(DKIN)
Test: Phage-display competitive binding assay, PDGFRB(DKIN)
Settings: T7 phage displaying human PDGFR-β, DKIN construct; read-out: Binding Assay: PDGFRB(DKIN)
Experimental: The term “ND” represents non-determined values. Briefly, T7 phage displaying human PDGFR-β were incubated with an affinity matrix coated with known PDGFR-β inhibitor in the presence of various concentrations of the soluble competitor molecules.

# Structure smiles string, Kd
data = [
    ("CC(C)(C)c1cc(NC(=O)Nc2ccc(C(=O)NCCO)cc2)no1", "100 to 1000 nM"),
    ("CCOc1ccc(NC(=O)Nc2cc(C(C)(C)C)on2)cc1", "< 100 nM"),
    ("COc1cc(NC(=O)c2cn3nc(Cl)ccc3n2)ccc1NC(=O)Nc1cc(C(C)(C)C)on1", "100 to 1000 nM"),
    ("COc1cc(NC(=O)CCC(=O)N2CCNC(=O)CC2)ccc1NC(=O)Nc1cc(C(C)(C)C)on1", "1000 to 10000 nM"),
    ("COc1ccc(-c2noc(-c3ccc(NC(=O)Nc4cc(C(C)(C)C)on4)cc3)n2)c2ccccc12", "1000 to 10000 nM"),
    ("CC(C)(C)c1cc(NC(=O)Nc2ccc(NC(=O)c3nccc4ccccc34)cc2)no1", "< 100 nM"),
    ("CC(C)(C)c1cc(NC(=O)Nc2ccc(NC(=O)C3=NCC=N3)cc2)no1", "< 100 nM"),
    ("CN(C)c1ccc(C(=O)Nc2ccc(NC(=O)Nc3cc(C(C)(C)C)on3)cc2)cn1", "< 100 nM"),
]

====

biological target: PDGFRB(DKIN) (PDGFR-β) (Homo sapiens); construct: PDGFRB(DKIN); assay: Phage-display competitive binding assay, PDGFRB(DKIN); conditions: T7 phage displaying human PDGFR-β, DKIN construct; read-out: Binding Assay: PDGFRB(DKIN)
Property: Kd; scope: individual molecules

# Structure smiles string, Kd
records = [
    ("CC(C)(C)c1cc(NC(=O)Nc2ccc(NS(=O)(=O)c3ccccc3)cc2)no1", "1000 to 10000 nM"),
    ("CC(C)(C)c1cc(NC(=O)Nc2ccc(NC(=O)c3c(Cl)cccc3Cl)cc2)no1", "100 to 1000 nM"),
    ("CC(C)(C)c1cc(NC(=O)Nc2ccc(NC(=O)c3cc(Cl)cn(Cc4ccccc4)c3=O)cc2)no1", "100 to 1000 nM"),
    ("CC(C)(C)c1cc(NC(=O)Nc2ccc(NC(=O)Cc3ccccc3)cc2)no1", "100 to 1000 nM"),
    ("CC(C)(C)c1cc(NC(=O)Nc2ccc(NC(=O)c3ccccc3Cl)cc2)no1", "< 100 nM"),
    ("CC(C)(C)c1cc(NC(=O)Nc2ccc(NC(=O)c3cc(Cl)cc(Cl)c3)cc2)no1", "100 to 1000 nM"),
    ("Cc1ccc2sc(C(=O)Nc3ccc(NC(=O)Nc4cc(C(C)(C)C)on4)cc3)cc2c1", "< 100 nM"),
    ("C=N/C(=N\\C)Oc1cccc(C(=O)Nc2ccc(NC(=O)Nc3cc(C(C)(C)C)on3)cc2)c1", "< 100 nM"),
]

====

molecular target: PDGFRB(DKIN) (PDGFR-β) (Homo sapiens, UniProt P09619); construct: PDGFRB(DKIN); assay: Phage-display competitive binding assay, PDGFRB(DKIN); details: T7 phage displaying human PDGFR-β, DKIN construct; read-out: Binding Assay: PDGFRB(DKIN)
pKd: −log10 of the molar value.
Parameter pKd: see the listing below.

# Compound, pKd
data = [
    ("COC(=O)c1ccc(C(=O)Nc2ccc(NC(=O)Nc3cc(C(C)(C)C)on3)cc2)nc1 [Compound N113]", "> 7.00"),
    ("CC(C)(C)c1cc(NC(=O)Nc2ccc(Cl)cc2)on1", "> 7.00"),
    ("Cc1nc(-c2ccc(C(=O)Nc3ccc(NC(=O)Nc4cc(C(C)(C)C)on4)cc3)s2)cs1", "> 7.00"),
    ("CC(C)(C)c1cc(NC(=O)Nc2ccc(NC(=O)CC(N)c3ccccc3Cl)cc2)no1 (stereo not shown)", "5.00 to 6.00"),
]

====

biological target: PDGFRB(DKIN) (PDGFR-β) (Homo sapiens, UniProt P09619); construct: PDGFRB(DKIN); assay: Phage-display competitive binding assay, PDGFRB(DKIN); details: T7 phage displaying human PDGFR-β, DKIN construct; read-out: Binding Assay: PDGFRB(DKIN)
pKd: −log10 of the molar value.
Endpoint label: pKd

# Compound, Endpoint label, Readout value
measured = [
    ("CC(C)c1ccc(NC(=O)Nc2cc(C(C)(C)C)no2)cc1", "pKd", "6.00 to 7.00"),
    ("Cc1ccc(-c2nc(C(=O)Nc3ccc(NC(=O)Nc4cc(C(C)(C)C)on4)cc3)cs2)cc1", "pKd", "> 7.00"),
    ("CC(C)(C)c1cc(NC(=O)Nc2ccc(OCc3ccccc3-c3ccccc3)cc2)no1", "pKd", "6.00 to 7.00"),
    ("CC(C)(C)c1cc(N2CCCN(c3ccc(OCc4ccccc4)cc3)C2=O)on1 [Compound E2]", "pKd", "6.00 to 7.00"),
    ("CC(C)(C)c1cc(NC(=O)Nc2ccc(OCc3ccc(C(=O)c4ccccc4)cc3)cc2)no1", "pKd", "6.00 to 7.00"),
    ("CC1CCCN(CCOc2ccc(NC(=O)Nc3cc(C(C)(C)C)on3)cc2)C1 (centres unmarked)", "pKd", "< 5.00"),
    ("CC(C)(C)c1cc(NC(=O)Nc2ccc(C(N)=O)cc2)no1", "pKd", "6.00 to 7.00"),
    ("Cc1nnsc1C(=O)Nc1ccc(NC(=O)Nc2cc(C(C)(C)C)on2)cc1", "pKd", "6.00 to 7.00"),
    ("CC(C)(C)c1cc(NC(=O)Nc2ccc(NC(=O)c3nocc3C(C)(C)C)cc2)no1", "pKd", "6.00 to 7.00"),
    ("CC(C)(C)c1cc(NC(=O)Nc2ccc(NC(=O)c3ncccc3C(N)=O)cc2)n[nH]1", "pKd", "6.00 to 7.00"),
    ("Cc1ccncc1C(=O)Nc1ccc(NC(=O)Nc2cc(C(C)(C)C)on2)cc1", "pKd", "6.00 to 7.00"),
    ("CC(C)(C)c1cc(NC(=O)Nc2ccc(NC(=O)c3cc4cccnc4nc3C(F)(F)F)cc2)no1", "pKd", "5.00 to 6.00"),
    ("Cn1cc(C(=O)Nc2ccc(NC(=O)Nc3cc(C(C)(C)C)on3)cc2)c2ccccc21", "pKd", "> 7.00"),
    ("O=C(Nc1ccc(Cl)cc1)Nc1cc(C2CC2)nn1-c1ccccc1", "pKd", "5.00 to 6.00"),
    ("O=C(Nc1ccc(Cl)cc1)Nc1ccc(-n2nc(Br)c(Br)c2Br)cc1", "pKd", "> 7.00"),
    ("O=C(c1cc2ccccc2[nH]1)c1cc2cc(O)ccc2[nH]1", "pKd", "> 7.00"),
    ("CC(C)(C)c1cc(NC(=O)Nc2ccc3cc4ccccc4cc3c2)no1", "pKd", "5.00 to 6.00"),
]

====

Each item that follows carries a reported Kd.
Molecular target: PDGFRB(DKIN) (PDGFR-β) (Homo sapiens, UniProt P09619)
Construct: PDGFRB(DKIN)
Experiment: Phage-display competitive binding assay, PDGFRB(DKIN)
Details: T7 phage displaying human PDGFR-β, DKIN construct; read-out: Binding Assay: PDGFRB(DKIN)
Description: The term “ND” represents non-determined values. Briefly, T7 phage displaying human PDGFR-β were incubated with an affinity matrix coated with known PDGFR-β inhibitor in the presence of various concentrations of the soluble competitor molecules.

# Molecule, Kd
records = [
    ("CC(C)(C)c1cc(NC(=O)Nc2ccc(OCC(O)CO)cc2)no1 (centres unmarked) [Compound G28]", "100 to 1000 nM"),
    ("Cc1cc(NC(=O)c2cn3nc(Cl)ccc3n2)ccc1NC(=O)Nc1cc(C(C)(C)C)on1 [Compound N169]", "100 to 1000 nM"),
    ("CC(C)(C)c1cc(NC(=O)Nc2ccc(NC(=O)c3cc(Cl)nnc3Cl)cc2)no1 [Compound N174]", "100 to 1000 nM"),
    ("CC(C)c1oc(Cl)nc1C(=O)Nc1ccc(NC(=O)Nc2cc(C(C)(C)C)on2)cc1 [Compound N75]", "< 100 nM"),
    ("CC(C)(C)c1cc(NC(=O)Nc2ccc(NC(=O)c3cnn(-c4cccc(Cl)c4)c3Br)cc2)no1 [Compound N45]", "100 to 1000 nM"),
    ("CN1CN(c2ccc(OCc3ccccc3)cc2)C(=O)N(c2cc(C(C)(C)C)on2)C1 [Compound E4]", "100 to 1000 nM"),
    ("Cc1sc(NC(=O)Nc2ccc(Cl)cc2)c(C(N)=O)c1C [Compound Z58]", "> 10000 nM"),
    ("CC(C)(C)c1cc(NC(=O)Nc2ccc(OCc3ccccc3F)cc2)no1 [Compound G12]", "< 100 nM"),
    ("CC(C)(C)c1cc(NC(=O)Nc2ccc(NC(=O)Cc3csc4ccccc34)cc2)no1 [Compound N107]", "1000 to 10000 nM"),
    ("CC(C)(C)c1cc(NC(=O)Nc2ccc(OCc3cccc(F)c3)cc2)no1 [Compound G14]", "< 100 nM"),
    ("O=C(Nc1ccc(OCc2ccccc2)cc1)Nc1cc(C2CC2)nn1-c1ccccc1 [Compound H8]", "100 to 1000 nM"),
    ("CC(C)(C)c1cc(NC(=O)Nc2ccc(NC(=O)c3cc([N+](=O)[O-])ccn3)cc2)no1 [Compound N7]", "< 100 nM"),
    ("Cn1nc(-c2ccccc2)c(C(=O)Nc2ccc(NC(=O)Nc3cc(C(C)(C)C)on3)cc2)c1Cl [Compound N11]", "> 10000 nM"),
    ("C/C=C/C(=O)Nc1ccc(NC(=O)Nc2cc(C(C)(C)C)on2)cc1 [Compound N93]", "1000 to 10000 nM"),
    ("Cc1ccc(S(=O)(=O)Nc2ccc(NC(=O)Nc3cc(C(C)(C)C)on3)cc2)cc1 [Compound V2]", "1000 to 10000 nM"),
    ("CC(Oc1ccc(NC(=O)Nc2cc(C(C)(C)C)on2)cc1)c1ccccc1 (centres unmarked) [Compound G17]", "100 to 1000 nM"),
    ("CC(C)(C)c1cc(NC(=O)Nc2ccc(-c3nc(-c4ccc(C(F)(F)F)cc4)no3)cc2)no1 [Compound P8]", "> 10000 nM"),
]
